# target-or-test-system: mouse SLC26A1 (Mus musculus, UniProt P58735, C691Y)
# Construct: Full-length mouse SLC26A6b and SLC26A 1 cDNAs were cloned into the Xenopus expression vector pGEMHE; expressed in transfected cells; host or cells: Xenopus laevis oocytes injected with in vitro transcribed cRNA (pGEMHE)
# Sequence (P58735 whole entry C691Y): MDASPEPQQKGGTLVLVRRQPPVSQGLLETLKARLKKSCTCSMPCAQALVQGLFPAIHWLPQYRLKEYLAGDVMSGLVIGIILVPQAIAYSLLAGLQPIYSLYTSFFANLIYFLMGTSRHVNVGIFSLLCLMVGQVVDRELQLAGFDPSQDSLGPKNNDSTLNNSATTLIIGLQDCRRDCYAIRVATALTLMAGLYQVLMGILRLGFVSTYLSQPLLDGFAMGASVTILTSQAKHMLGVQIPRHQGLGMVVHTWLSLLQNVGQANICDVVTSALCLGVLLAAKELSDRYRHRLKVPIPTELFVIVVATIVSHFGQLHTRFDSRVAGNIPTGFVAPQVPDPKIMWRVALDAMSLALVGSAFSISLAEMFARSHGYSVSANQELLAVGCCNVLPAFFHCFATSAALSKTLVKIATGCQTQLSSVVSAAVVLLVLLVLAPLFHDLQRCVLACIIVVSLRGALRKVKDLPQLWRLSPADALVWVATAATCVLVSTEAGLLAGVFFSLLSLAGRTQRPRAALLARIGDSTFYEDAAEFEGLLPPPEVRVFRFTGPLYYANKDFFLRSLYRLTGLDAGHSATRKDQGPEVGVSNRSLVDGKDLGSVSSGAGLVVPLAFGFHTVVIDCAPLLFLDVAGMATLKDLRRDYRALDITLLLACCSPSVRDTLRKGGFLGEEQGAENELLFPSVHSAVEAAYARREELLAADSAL
# run-description: Radiolabelled anion uptake in Xenopus oocytes expressing mouse SLC26A1
# Format: cell-based
# assay-setup: 25 mM of the anion (FIG. 9A, 6C)
assay-readout: effect of extracellular anion on SO4 2− transport via SLC26A1

{"columns": ["compound", "reading"],
 "data": [
  ["CC(O)C(=O)O (centres unmarked) [lactate]", "activate"],
  ["O=CO [formate]", "activate"],
  ["O=S(=O)(O)O [sulphate]", "strongly cis-inhibitory"],
  ["O=C(O)C(=O)O [oxalate]", "strongly cis-inhibitory"]
]}

---

# target-or-test-system: mouse SLC26A6b (Mus musculus, UniProt Q8CIW6, R572P)
# Construct: Full-length mouse SLC26A6b and SLC26A 1 cDNAs were cloned into the Xenopus expression vector pGEMHE; expressed in transfected cells; host or cells: Xenopus laevis oocytes injected with in vitro transcribed cRNA (pGEMHE)
# Sequence (Q8CIW6 24-758 R572P limits assumed): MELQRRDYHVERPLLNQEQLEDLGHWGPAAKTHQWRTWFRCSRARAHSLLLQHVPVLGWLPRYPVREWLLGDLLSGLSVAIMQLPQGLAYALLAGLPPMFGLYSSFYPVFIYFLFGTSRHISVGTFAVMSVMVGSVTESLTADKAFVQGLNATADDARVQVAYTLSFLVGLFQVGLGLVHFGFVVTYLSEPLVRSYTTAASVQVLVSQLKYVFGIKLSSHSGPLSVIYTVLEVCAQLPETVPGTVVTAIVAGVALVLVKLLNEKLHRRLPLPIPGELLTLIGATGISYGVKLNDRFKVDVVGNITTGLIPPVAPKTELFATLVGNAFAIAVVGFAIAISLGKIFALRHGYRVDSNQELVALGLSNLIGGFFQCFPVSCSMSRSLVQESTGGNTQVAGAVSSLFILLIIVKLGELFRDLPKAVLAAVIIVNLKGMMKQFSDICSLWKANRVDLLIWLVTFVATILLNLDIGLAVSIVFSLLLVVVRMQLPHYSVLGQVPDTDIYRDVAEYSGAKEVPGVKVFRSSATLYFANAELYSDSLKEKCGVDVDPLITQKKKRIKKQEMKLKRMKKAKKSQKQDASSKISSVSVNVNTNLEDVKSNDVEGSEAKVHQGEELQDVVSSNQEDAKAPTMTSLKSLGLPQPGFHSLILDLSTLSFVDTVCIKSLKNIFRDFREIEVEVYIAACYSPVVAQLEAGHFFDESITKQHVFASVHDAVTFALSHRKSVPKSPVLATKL
# run-description: Radiolabelled anion uptake/exchange in Xenopus oocytes expressing mouse SLC26A6b
# Format: cell-based
# assay-setup: 25 mM of the anion, 36Cl− uptake one hour (FIG. 7A)

{"columns": ["compound", "cis-inhibition of Cl−—Cl− exchange"],
 "data": [
  ["O=CO [formate]", "significantly inhibited"],
  ["Br", "cis-inhibitory"],
  ["O=S(=O)(O)O [sulphate]", "significantly inhibited"],
  ["I [I^−, iodide]", "cis-inhibitory"]
]}
